Please go through the items and note down their PC-3 PIP Tumor.
Test system: PC-3 PIP/flu tumor-bearing mice
test-method-notes: Biodistribution studies in PC-3 PIP/flu tumor-bearing mice
condition-description: 24 h p.i.
I'd appreciate it if you wrote the number followed by its unit.

Take a look at these entries with their results.
1. O=C(O)CCC(NC(=O)NC(CCCCNC(=O)C(Cc1ccc2ccccc2c1)NC(=O)C1CCC(CNC(=O)C(CCCCNC(=O)CN2CCN(CC(=O)O)CCN(CC(=O)O)CCN(CC(=O)O)CC2)NC(=O)CC(NC(=O)CC(NC(=O)CCCc2ccc(I)cc2)C(=O)O)C(=O)O)CC1)C(=O)O)C(=O)O (centres unmarked) [^177Lu-PSMA-ALB-05, metal not drawn]    79.4 ± 11.1 % IA/g
2. O=C(O)CCC(NC(=O)NC(CCCCNC(=O)C(Cc1ccc2ccccc2c1)NC(=O)C1CCC(CNC(=O)C(CCCCNC(=O)CN2CCN(CC(=O)O)CCN(CC(=O)O)CCN(CC(=O)O)CC2)NC(=O)CC(NC(=O)CC(NC(=O)CC(NC(=O)CCCc2ccc(I)cc2)C(=O)O)C(=O)O)C(=O)O)CC1)C(=O)O)C(=O)O (centres unmarked) [^177Lu-PSMA-ALB-07, metal not drawn]    84.6 ± 14.2 % IA/g
3. Cc1ccc(CCCC(=O)NC(CC(=O)NC(CC(=O)NC(CC(=O)NC(CCCCNC(=O)CN2CCN(CC(=O)O)CCN(CC(=O)O)CCN(CC(=O)O)CC2)C(=O)NCC2CCC(C(=O)NC(Cc3ccc4ccccc4c3)C(=O)NCCCCC(NC(=O)NC(CCC(=O)O)C(=O)O)C(=O)O)CC2)C(=O)O)C(=O)O)C(=O)O)cc1 (centres unmarked) [^177Lu-PSMA-ALB-08, metal not drawn]    33.0 ± 5.04 % IA/g
4. O=C(O)CCC(NC(=O)NC(CCCCNC(=O)C(Cc1ccc2ccccc2c1)NC(=O)C1CCC(CNC(=O)C(CCCCNC(=O)CCCc2ccc(I)cc2)NC(=O)CN2CCN(CC(=O)O)CCN(CC(=O)O)CCN(CC(=O)O)CC2)CC1)C(=O)O)C(=O)O (centres unmarked) [^177Lu-PSMA-ALB-03, metal not drawn]    53.8 ± 5.61 % IA/g

Now consider a different molecule.
Returns the measured PC-3 PIP Tumor for the input molecule. Input: Cc1ccc(CCCC(=O)NCCCC[C@H](NC(=O)CCC(C(=O)O)N2CCN(CC(=O)O)CCN(CC(=O)O)CC2)C(=O)NC[C@H]2CC[C@H](C(=O)N[C@H](Cc3ccc4ccccc4c3)C(=O)NCCCC[C@@H](NC(=O)N[C@H](CCC(=O)O)C(=O)O)C(=O)O)CC2)cc1 (some centres unmarked) [^64Cu-PSMA-ALB-89, metal not drawn] 97.1±7.01 % IA/g
